Biological target: T1, human MSLN-R3 protein (Met487-Ser606 of NCBI AAH09272.1) expressed on HEK293T-hMSLN-R3 cells (human, UniProt Q13421 487-606)
T1 construct: also called Region3
T1 sequence (Q13421 495-614): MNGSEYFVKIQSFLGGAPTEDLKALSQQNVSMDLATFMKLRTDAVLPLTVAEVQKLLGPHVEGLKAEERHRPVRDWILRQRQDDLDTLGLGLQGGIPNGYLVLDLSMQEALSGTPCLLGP
Assay: FACS on HEK293T-hMSLN-R3 cells;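 further: flow cytometry binding of test chimeric antibodies to cells after 2 h incubation on ice, with values derived from the mean fluorescence intensity of the cells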
measurementType: Maximum mean fluorescence intensity
Respond with the number and no other words.

Solved cases (3 shown):
{"binder": "S009-F7.33.24 (antibody, human IgG1, kappa, V domains shown, human-murine chimeric antibody, human IgG1/kappa constant regions) VH: QVQLQQPGTELVKPGASVKLSCKASGYTFTSYWMHWVKQRPGQGLEWIGNVNPSNGGSNYNEKFKNKATLTVDKSSSTADMQLNSLTSEDSAVYYCAPHYIGSRPGFAYWGQGTLVTVSG VL: DIVMTQSQKFMSTSVGDRVSVTCKASQNVGTNIAWYQQKPGQSPKALIYSASYRYSGVPDRFTGSGSGTDFTLTITNVQSEDLAEYFCQQYNSYPLTFGGGTKVEIKR", "Maximum mean fluorescence intensity": 6480}
{"binder": "Tab106 (YP218, hIgG1) (antibody, V domains shown, Control antibody; also called YP218 human IgG1 antibody) VH: QQQLEESGGGLVKPEGSLTLTCKASGFDLGFYFYACWVRQAPGKGLEWIACIYTAGSGSTYYASWAKGRFTISKASSTTVTLQMTSLAAADTATYFCARSTANTRSTYYLNLWGPGTLVTVSS VL: DVVMTQTPASVSEPVGGTVTIKCQASQRISSYLSWYQQKPGQRPKLLIFGASTLASGVPSRFKGSGSGTEYTLTISDLECADAATYYCQSYAYFDSNNWHAFGGGTEVVVRT", "Maximum mean fluorescence intensity": 7460}
{"binder": "S009-F7.69.8 (antibody, human IgG1, kappa, V domains shown, human-murine chimeric antibody, human IgG1/kappa constant regions) VH: EVHLQQSGPELVKPGASVRIPCKASGYTFTDYNMDWVKQSHGKSLEWIGDINPDNGGTIYTQKFKGKATLTVDKSSSTAYMELRSLTSEDTAVYYCARRLHYYGSSGLDYWGQGTTLTVSS VL: DIQMTQSPASLSAYVGETVTITCRASGNIHNYLAWYQQKQGKSPQLLVYNAKTLADGVPSRFSGSGSGTQYSLKINSLQPEDFGSYYCQHFWSTVWTFGGGTKLEIKR", "Maximum mean fluorescence intensity": 6590}

Task item: Quick one: Maximum mean fluorescence intensity of S009-F7.61.21 (antibody, human IgG1, kappa, V domains shown, human-murine chimeric antibody, human IgG1/kappa constant regions) VH: DVQLQQSGPELVEPGASVRIPCKAAGHTFTDYNVDWVKQSHGQSLEWIGDVNPNTDGAIYNQKFEGKATLTVDTSSSTAYMELRSLTSEDTAVYFCARRRLGQGGFDSWGQGTTLTVSS VL: QVVLTQSPAIMSASPGEKVTLTCGASSSLISKYLYWYQQKPGSSPKLWIYSTSNLASGVPARFSGSGSGTSYSLTISSMEAEDAASYFCHQWSSYPYTFGGGTKVEIKR ?
Reply: 6250
